Values compiled from patent US20220323406A1.

test system: ENR+CD organoids (ISC to Paneth cell differentiation); assay: Primary screen: basal (non-stimulated) lysozyme secretion LYZ.NS, 2.5-D 384-well ENR+CD organoid differentiation; assay type: cell-based, mouse; details: primary screen, dose 2.00 uM, standard z score
Classification field: true = Z.LYZ.NS at or over 0.6; false = Z.LYZ.NS under 0.6.

* CCn1c(N)c(C(=O)NC)c(=O)c2ccc(C#C[C@@](C)(O)COC)nc21 | false
* COc1ccc(C2CNC(=O)C2)cc1OC1CCCC1 (stereo not shown) [Rolipram, reference compound] | true
* Nc1ccc(C(=O)[O-])c(O)c1.[Na+] [Sodium 4-Aminosalicylate] | true
* Cl.Cl.NC1(c2ccc(-c3nc4ccn5c(=O)[nH]nc5c4cc3-c3ccccc3)cc2)CCC1 [MK-2206 2HCl] | false
* CNC(=O)c1ccc2cc([C@@]3(O)CCn4cncc43)ccc2c1 | true

*Q* Say whether Cc1ccc(-n2nccn2)c(C(=O)N2CCN(c3nc4cc(Cl)ccc4o3)CC[C@H]2C)c1 shows Z.LYZ.NS of 0.6 or more.
*A* true

*Q* Please check the record O=C(NC[C@H]1CN(c2ccc(N3CCOCC3=O)cc2)C(=O)O1)c1ccc(Cl)s1 and state if its Z.LYZ.NS is at or above 0.6.
*A* true

*Q* // inclusive: Z.LYZ.NS at least 0.6? input: Nc1cccc2c1C(=O)N(C1CCC(=O)NC1=O)C2=O (stereo not shown) [Pomalidomide]
*A* false

*Q* Hi team, for N#CC[C@H](C1CCCC1)n1cc(-c2ncnc3[nH]ccc23)cn1 [Ruxolitinib (INCB018424), Ruxolitinib, reference compound] , is the recorded Z.LYZ.NS at or above 0.6?
*A* true

*Q* Tell me whether Z.LYZ.NS is at least 0.6 here: O=C1CC(=O)c2c(Cl)c(Cl)c(Cl)c(Cl)c21
*A* false

*Q* Test whether the compound C[C@](O)(COc1ccc(C#N)cc1)C(=O)Nc1ccc(C#N)c(C(F)(F)F)c1 records Z.LYZ.NS of 0.6 or higher.
*A* false

*Q* Hi team, for O=[N+]([O-])C=Cc1ccc2c(c1)OCO2 , is the recorded Z.LYZ.NS at or above 0.6?
*A* false

* * *

system: ENR+CD organoids; test: Primary screen: ATP (CellTiter-Glo 3D, CTG) cell number/viability, 2.5-D 384-well ENR+CD organoids; conditions: primary screen, dose 0.40 uM;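 further: compounds given at plating and again on day 3 over a 6-day differentiation from ENR+CV stem-cell-enriched precursors, ATP measured on day 6, plate median as control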
# MET = Z.CTG (standard z score) below -0.02 (exclusive); NOT MET = Z.CTG (standard z score) at/above -0.02

As a guide, the following entries are already answered.
• COc1nc(C)cnc1NS(=O)(=O)c1cccnc1-c1ccc(-c2nnco2)cc1 [Zibotentan (ZD4054)] = MET
• O=C1[C@H](Cc2ccc(O)cc2)N2C(=O)CCN(C(=O)NCc3ccccc3)[C@H]2CN1Cc1cccc2ccccc12 = NOT MET
• Fc1cc(F)c2c(c1)[C@H]1C=CC[C@H]1C(c1cccnc1)N2 (mixture of isomers) [Golgicide A] = NOT MET
• C[C@H](Cn1cnc2c(N)ncnc21)OCP(=O)(O)O = MET
• O=C(O)CNC(=O)c1c(O)c2ccccc2n(Cc2ccccc2)c1=O = NOT MET
• CC(C)N(CC[C@H](c1ccccc1)c1cc(CO)ccc1O)C(C)C = NOT MET
• COC1CCN(C(=O)c2cc(Cc3n[nH]c(=O)c4ccccc34)ccc2F)CC1 = MET

// switching to the query compound
*Q* Lab note: confirm whether the reported Z.CTG (standard z score) for this compound is below -0.02, equality not counting. compound: COc1cc(OC2CCN(C)CC2)ccc1Nc1ncc2c(n1)n(C1CCCC1)c(=O)n2C
*A* MET
